Source: patent US20190292179A1

Assay Target: HIS-TGFβR2 WT (Homo sapiens, UniProt P37173)
Sequence (P37173 23-567): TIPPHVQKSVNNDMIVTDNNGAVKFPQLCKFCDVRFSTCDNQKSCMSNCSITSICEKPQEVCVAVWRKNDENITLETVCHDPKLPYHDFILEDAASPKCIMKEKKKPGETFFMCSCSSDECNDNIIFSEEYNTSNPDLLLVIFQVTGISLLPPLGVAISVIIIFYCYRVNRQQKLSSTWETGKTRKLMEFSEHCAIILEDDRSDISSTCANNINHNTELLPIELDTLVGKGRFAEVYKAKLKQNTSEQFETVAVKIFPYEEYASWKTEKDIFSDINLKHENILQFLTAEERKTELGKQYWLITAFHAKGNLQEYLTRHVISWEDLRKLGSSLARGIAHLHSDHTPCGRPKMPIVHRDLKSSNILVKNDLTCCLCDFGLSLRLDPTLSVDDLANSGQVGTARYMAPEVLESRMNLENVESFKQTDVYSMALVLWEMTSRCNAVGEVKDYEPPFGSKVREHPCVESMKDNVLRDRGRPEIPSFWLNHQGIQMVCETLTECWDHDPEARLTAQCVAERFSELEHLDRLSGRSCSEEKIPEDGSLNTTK
Experiment Notes: HTRF probe-displacement assay with HIS-TGFβR2 WT
Assay type: binding
Experimental Conditions: 1 nM HIS-TGFβR2 WT, labeled probe at Kd, 1 hour at room temperature
Where a name gives a salt, the structure may show the parent alone.
Endpoint Name: IC50 (µM)

> print(dat)
                                    molecule  endpoint.name  uom  result.number
 1  Cc1cccc(-c2nn(C)cc2-c2ccc3ncc(C#N)n3c2)n1           IC50   µM           2.48
 2  Cc1cc(-c2n[nH]c(C3CC3)c2-c2ccc3ncc(C(N)=O)n3c2)ccc1F           IC50   µM          0.094
 3  Cc1cccc(-c2n[nH]c(C(C)C)c2-c2ccc3ncc(C(N)=O)n3c2)n1           IC50   µM          0.009
 4  Cc1nc(-c2nn(C)cc2-c2ccc3ncc(C#N)n3c2)ccc1F           IC50   µM           5.42
 5  Cc1cccc(-c2nn(CC(F)F)cc2-c2ccc3ncc(C(N)=O)n3c2)n1           IC50   µM          0.075
 6  CCc1c(-c2ccc3ncc(C(N)=O)n3c2)c(-c2cccc(C)n2)nn1C           IC50   µM          0.128
 7  NC(=O)c1cnc2ccc(-c3c[nH]nc3-c3ccc(F)cc3)nn12           IC50   µM          0.885
 8  Fc1ccc(-c2n[nH]cc2-c2ccc3nncn3c2)cc1 [Example 31, TFA]           IC50   µM           9.17
 9  CC(C)c1c(-c2ccc3ncc(C(N)=O)n3c2)c(-c2ccc(F)cc2)nn1C           IC50   µM          0.963
10      Fc1ccc(-c2n[nH]cc2-c2ccc3nccn3n2)cc1           IC50   µM           4.93
11  Cc1cccc(-c2n[nH]c(C)c2-c2ccc3ncc(C(N)=O)n3c2)n1           IC50   µM          0.012
12  CC(=O)Nc1cc(-c2c[nH]nc2-c2ccc(F)cc2)cn2ccnc12           IC50   µM           7.06
13     Cc1cc(-c2n[nH]cc2-c2ccc3nccn3c2)ccc1F           IC50   µM           4.12
14  CC(C)c1[nH]nc(-c2ccc(F)cc2)c1-c1ccc2ncc(C#N)n2c1           IC50   µM           11.1
15  Fc1ccc(-c2n[nH]c(C3CC3)c2-c2ccc3nccn3c2)cc1           IC50   µM           14.6
16  Cc1cccc(-c2nn(C)c(C(C)C)c2-c2ccc3ncc(C#N)n3c2)n1           IC50   µM           5.77
17  NC(=O)c1cnc2ccc(-c3c(-c4ccc(Cl)cc4)n[nH]c3C3CC3)cn12           IC50   µM           6.36
18  N#Cc1cnc2ccc(-c3cn(CC(F)F)nc3-c3ccc(F)c(Cl)c3)cn12           IC50   µM           2.28
